- measured.on: T1, Clostridium difficile toxin A, soluble full-length (TechLab) (Clostridium difficile, UniProt P16154 1-2710)
- T1 construct: also called tcdA
- method.notes: SPR Biacore T200, 37C, mAb capture
property.measured: kon (M⁻¹ s⁻¹)

1) H1H3330P (antibody, V domains shown) VH: QVQLVESGGGVVQPGGSLRLSCAASGFTFSSYAMHWVRQAPGKGLEWVAIIWFDGSNEDYADSVKGRFTISRDNSKNMVYLQINSLRAEDTAVYYCARSANWNYEGGPLFDYWGQGTLVTVSS VL: DIQMTQSPSSLSASVGDRVTITCRASQTISTFLNWYQQKPGKGPELLIYTASSLQSGVPSRFSGSGSGTDFALTISSLQPEDFATYYCQQNYNDPPTFGQGTRLEIKR | 250000
2) Control I (anti-toxin A antibody with the variable domains of the "3D8" antibody of U.S. Pat. No. 7,625,559 and US2005/0287150) (antibody, human IgG1, kappa, V domains shown, also called control 1; Control Antibody I) VH: QVQLVESGGGVVQPGRSLRLSCAASGFSFSNYGMHWVRQAPGKGLEWVALIWYDGSNEDYTDSVKGRFTISRDNSKNTLYLQMNSLRAEDTAVYYCARWGMVRGVIDVFDIWGQGTVVTVSS VL: DIQMTQSPSSVSASVGDRVTITCRASQGISSWLAWYQHKPGKAPKLLIYAASSLQSGVPSRFSGSGSGTDFTLTISSLQPEDFATYYCQQANSFPWTFGQGTKVEIKR | 377000
3) H1H3328P (antibody, V domains shown) VH: EVQLVESGGGLVQPGGSLTLSCAASRFTFSNYDMHWVRQATGKGLEWVSAIGTVGDTYYAGSVKGRFTISRDDAKNSLYLQMNSLRAGDTAVYYCARDRGGAGTYSFYYGMDVWGQGTTVTVSS VL: DIQMTQSPSSLSASVGDRVTITCRASQDISNYLAWYQQKPGKVPKLLIYAASTLQSGVPSRFSGSGSGTDFTLTVSSLQPEDVATYYCQKYTSAPFTFGPGTKVDIKR | 382000
